target: α3β4 nicotinic acetylcholine receptor (α3 subunit) (Rattus norvegicus, UniProt P04757+P12392); construct: complete open reading frames of rat α3 and β4 subunits, RNA 1:1, Xenopus oocytes; with nAChR β4 subunit (Chrnb4); assay: two-electrode voltage clamp in Xenopus oocytes (partial agonist)
Sequence (P04757 26-499): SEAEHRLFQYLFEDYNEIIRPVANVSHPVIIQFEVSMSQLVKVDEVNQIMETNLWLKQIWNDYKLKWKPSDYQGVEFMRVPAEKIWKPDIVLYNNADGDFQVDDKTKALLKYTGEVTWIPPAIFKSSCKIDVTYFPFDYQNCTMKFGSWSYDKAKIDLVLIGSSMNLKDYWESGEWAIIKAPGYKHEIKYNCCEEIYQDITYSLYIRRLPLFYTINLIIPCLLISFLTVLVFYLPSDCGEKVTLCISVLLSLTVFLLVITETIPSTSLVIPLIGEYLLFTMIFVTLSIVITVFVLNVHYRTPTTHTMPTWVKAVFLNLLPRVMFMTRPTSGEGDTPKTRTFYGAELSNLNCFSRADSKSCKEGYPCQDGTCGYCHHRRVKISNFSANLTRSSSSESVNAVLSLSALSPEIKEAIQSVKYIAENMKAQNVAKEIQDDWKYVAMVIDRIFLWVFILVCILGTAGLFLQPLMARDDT
Sequence (P12392 21-495): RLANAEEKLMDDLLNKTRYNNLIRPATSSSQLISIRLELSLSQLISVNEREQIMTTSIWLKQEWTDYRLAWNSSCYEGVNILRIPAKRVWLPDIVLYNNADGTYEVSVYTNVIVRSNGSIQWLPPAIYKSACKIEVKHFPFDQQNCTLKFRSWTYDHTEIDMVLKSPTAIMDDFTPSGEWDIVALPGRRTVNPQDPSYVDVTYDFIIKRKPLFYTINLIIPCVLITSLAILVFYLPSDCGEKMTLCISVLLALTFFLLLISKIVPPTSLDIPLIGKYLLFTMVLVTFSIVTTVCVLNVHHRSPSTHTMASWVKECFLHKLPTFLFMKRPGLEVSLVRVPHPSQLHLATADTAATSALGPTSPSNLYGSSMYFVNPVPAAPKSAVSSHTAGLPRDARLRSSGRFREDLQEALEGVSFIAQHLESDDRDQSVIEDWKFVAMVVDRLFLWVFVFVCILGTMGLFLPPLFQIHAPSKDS
pEC50: −log10 of the molar value.
measured-metric: pEC50

CN/C(=N\[N+](=O)[O-])NCc1cnc(Cl)s1 : 2.08

FYI, the data here is from paper PMC8151892.
